Molecular target: T1, Unr CSD789 R976A (Drosophila, UniProt B7Z0E2 756-990, R976A)
T1 sequence: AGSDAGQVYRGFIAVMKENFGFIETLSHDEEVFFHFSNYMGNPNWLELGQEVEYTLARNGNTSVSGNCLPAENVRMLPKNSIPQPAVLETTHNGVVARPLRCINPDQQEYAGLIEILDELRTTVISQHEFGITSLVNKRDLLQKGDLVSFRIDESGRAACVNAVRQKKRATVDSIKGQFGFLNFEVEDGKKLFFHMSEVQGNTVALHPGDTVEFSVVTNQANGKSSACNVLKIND
Test: fluorescence polarization
READOUT: Kd (µM)
Record the value in µM, omitting the unit from your answer.

Reported Kd, binder AAAAAAAAAAAAAAA (ssRNA) [A15-mer, 3' labelled] : ____
161
